I'd appreciate it if you could supply cell viability values for the items below.
system: KCL-22; test: cell viability (% survival relative to DMSO control, bortezomib = 0%); higher = less cytotoxic; settings: 1 nM; 72 h
Output spec: scalar in %, unitless text.

Briefly, cell viability measured for CN(C)c1nc(O)c2[nH]cnc2n1 [2-Dimethylamino-6-hydroxypurine] : 98.2

Briefly, cell viability measured for C[C@H]1O[C@@H](O[C@H]2[C@@H](O)C[C@H](O[C@H]3[C@@H](O)C[C@H](O[C@H]4CC[C@@]5(C)[C@H](CC[C@@H]6[C@@H]5C[C@@H](O)[C@]5(C)[C@@H](C7=CC(=O)OC7)CC[C@]65O)C4)O[C@@H]3C)O[C@@H]2C)C[C@H](O)[C@@H]1O [Digoxin] : 99.1

Briefly, cell viability measured for O=P(O)(O)C(O)(Cn1ccnc1)P(=O)(O)O [Zoledronic acid] : 107

Briefly, cell viability measured for C[C@]12O[C@H](C[C@]1(O)CO)n1c3ccccc3c3c4c(c5c6ccccc6n2c5c31)CNC4=O [Lestaurtinib] : 104

Briefly, cell viability measured for Clc1ccc2c(c1Cl)CNCC2 : 101

Briefly, cell viability measured for O=C(O)C(S)=Cc1c[nH]c2ccc(F)cc12 : 111

Briefly, cell viability measured for COc1c(C)c2c(c(O)c1C/C=C(\C)CCC(=O)O)C(=O)OC2 [Mycophenolic acid] : 105
